# target.or.test.system: human CA-XII (Homo sapiens)
# Construct: purchased Creative BioMart CA12-261H
# Sequence (O43570 25-354): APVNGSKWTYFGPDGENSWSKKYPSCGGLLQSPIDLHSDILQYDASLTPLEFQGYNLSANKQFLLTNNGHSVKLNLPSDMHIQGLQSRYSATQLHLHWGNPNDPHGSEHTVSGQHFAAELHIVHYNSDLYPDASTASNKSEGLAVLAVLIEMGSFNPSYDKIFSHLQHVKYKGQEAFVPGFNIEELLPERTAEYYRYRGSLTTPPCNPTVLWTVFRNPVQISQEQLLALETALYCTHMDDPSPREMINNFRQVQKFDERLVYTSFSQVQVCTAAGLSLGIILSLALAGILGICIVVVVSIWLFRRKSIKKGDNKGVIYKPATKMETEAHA
# experimental.details: Surface Plasmon Resonance (SPR) binding kinetics to recombinant human CA-XII (Biacore 8K, single-cycle kinetics, 1:1 binding model)
# condition.parameters: Chelated Metal: Lu-175, 25° C., pH 7.4, read-out: CAXII KD
Examples of compounds with documented Kd follow.

compound | observation.type | endpoint.value
NS(=O)(=O)c1nnc(NC(=O)C23CC(c4cn(CCNC(=O)[C@@H]5CN(C(=O)CN6CCN(CC(=O)O)CCN(CC(=O)O)CCN(CC(=O)O)CC6)CCN5C(=O)C[C@H](NC(=O)C[C@H](NC(=O)Cn5nc(-c6ccc(O)cc6)c6ccc(O)cc65)C(=O)O)C(=O)O)nn4)(C2)C3)s1.[Lu+3] [Compound 109.34] | Kd | 2.5 to 10 nM

Query block: Report Kd for NS(=O)(=O)c1nnc(NC(=O)C23CC(c4cn(CCNC(=O)[C@@H]5CN(C(=O)CN6CCN(CC(=O)O)CCN(CC(=O)O)CCN(CC(=O)O)CC6)CCN5C(=O)C[C@H](Nc5ncc(C(=O)NCCc6ccc(C7CC7)cc6)cn5)C(=O)O)nn4)(C2)C3)s1.[Lu+3] [Compound 111.11] please.
Result block: > 10 nM

Query block: Sample Cc1cc(C(=O)Nc2nnc(S(N)(=O)=O)s2)ccc1-c1cn(CCNC(=O)[C@@H]2CN(C(=O)CN3CCN(CC(=O)O)CCN(CC(=O)O)CCN(CC(=O)O)CC3)CCN2C(=O)C[C@H](NC(=O)C[C@H](NC(=O)CCC(C)(c2ccc(O)cc2)c2ccc(O)cc2)C(=O)O)C(=O)O)nn1.[Lu+3] [Compound 107.35] — what was its Kd?
Result block: > 10 nM
